Experiment: AUC (0-t) in mouse at 50 mg/kg, po and measured upto 24 hrs
Format: ADME, organism-based
Set-up: dose 50 mg/kg, time < 24 hrs, route po
Conditions: in vivo
readout.kind: AUC(0-t) at 24 h (ng·h/mL)
Form entry: value (ng·h/mL) — number only.

response.value for CN1CCN(C(=O)c2ccc(-c3nn4c(-c5ccc(C#N)cc5)cnc4s3)cc2)CC1 (field: AUC(0-t) at 24 h) = 98500

----------
Test system: 3T3-L1
Assay: Inhibition of MNK in mouse 3T3-L1 cells assessed as inhibition of eIF4E phosphorylation at 5 uM incubated for 2 hrs by Western blot analysis
Type: cell-based
Active and inactive are the calls of the source. The rule behind the calls is not given here.
Your answer must be one of the following: Yes = active, No = inactive

Some solved entries appear below for comparison.
compound=CN1CCN(C(=O)c2ccc(-c3nn4cc(-c5ccc(C#N)cc5)nc4s3)cc2)CC1 group=No
compound=O=C(NCCO)c1ccc(-c2nn3cc(-c4ccccc4)nc3s2)cc1 group=No
compound=O=C(NCCc1ccncc1)c1ccc(-c2nn3cc(-c4ccc(F)cc4)nc3s2)cc1 group=No
compound=CN1CCN(C(=O)c2ccc(-c3nn4c(-c5ccc(C#N)cc5)cnc4s3)cc2)CC1 group=Yes
compound=N#Cc1ccc(-c2cn3nc(-c4ccc(C(=O)N5CCCC5)cc4)sc3n2)cc1 group=No
compound="CC1CCCCN1C(=O)c1ccc(-c2nn3c(-c4ccc(C#N)cc4)cnc3s2)cc1 (stereo not given)" group=Yes
compound=CN1CCN(C(=O)c2ccc(-c3nn4c(-c5ccncc5)cnc4s3)cc2)CC1 group=Yes
compound=CN(C)CC(C)(C)CNC(=O)c1ccc(-c2nn3cc(-c4ccccc4)nc3s2)cc1 group=No

Exercise: What did the test return for O=C(NCCCN1CCCC1)c1ccc(-c2nn3cc(-c4ccccc4)nc3s2)cc1 ?
Solution: No

Exercise: What did the test return for COC(=O)c1ccc(-c2cnc3sc(-c4ccc(C(=O)N5CCN(C)CC5)cc4)nn23)cc1 ?
Solution: Yes

----------
Read-out record for MAP kinase-interacting serine/threonine-protein kinase 2 (Homo sapiens): pIC50
// pIC50 here means minus log10 of the molar concentration (mol/L)

Worked examples follow.
smiles_entry=N#Cc1ccc(-c2cnc3sc(-c4ccc(C(=O)N5CCCC5)cc4)nn23)cc1 readout_kind=pIC50 measurement=7.68
smiles_entry=N#Cc1ccc(-c2cnc3sc(-c4ccc(C(=O)NCCN5CCCC5)cc4)nn23)cc1 readout_kind=pIC50 measurement=7.98
smiles_entry=CN(C)CCNC(=O)c1ccc(-c2nn3c(-c4ccc(C#N)cc4)cnc3s2)cc1 readout_kind=pIC50 measurement=7.48
smiles_entry=COC(=O)c1ccc(-c2cnc3sc(-c4ccc(C(=O)N5CCN(C)CC5)cc4)nn23)cc1 readout_kind=pIC50 measurement=6.98
smiles_entry=CN1CCN(C(=O)c2ccc(-c3nn4c(-c5ccncc5)cnc4s3)cc2)CC1 readout_kind=pIC50 measurement=6.77

Bench note, MAP kinase-interacting serine/threonine-protein kinase 2 (Homo sapiens): N#Cc1ccc(-c2cnc3sc(-c4ccc(C(=O)NCCCCCO)cc4)nn23)cc1 , pIC50 reads 7.24

----------
Assay: Tmax in mouse at 50 mg/kg, po and measured upto 24 hrs
Format: ADME, organism-based
Conditions: in vivo
readout.kind: Tmax
Write the quantity with the unit trailing the number.

response.value for CN1CCN(C(=O)c2ccc(-c3nn4c(-c5ccc(C#N)cc5)cnc4s3)cc2)CC1 (field: Tmax) = 1 h
